# PROCEDURE_TEXT: TG/DTA thermal analysis
# Type: physicochemical
# RUN_CONDITIONS: TG, air, 30° C. to 600° C., heating rate 10° C./min
# Description: The measurement is performed in a temperature range of 30° C. to 600° C. at a heating rate of 10° C./min while introducing air at a flow rate of 200 mL/min using EXSTAR 6000 (manufactured by Seiko Instruments Inc.). As a gas chromatography mass spectrometer, 6890/5975 MSD (manufactured by Agilent Technologies, Inc.) was used. […]
Field 'label' (enum: Yes / No). Set to Yes when 10% weight loss temperature is strictly under 300 °C; else No.

COMPOUND	LABEL_CLASS
CCCCCCCCCCCCCCCCCCN.O=S(=O)(NS(=O)(=O)C(F)(F)F)C(F)(F)F [Ionic liquid 1]	No
CCCCCCCCCCCCCCCCCCN.OCC(F)(F)C(F)(F)C(F)(F)C(F)(F)C(F)(F)C(F)(F)C(F)(F)F [Comparative ionic liquid 7, reference compound]	Yes
CCCCCCCCCCCCCCCCCCN1CCCN2CCCN=C12.O=S1(=O)NS(=O)(=O)C(F)(F)C(F)(F)C1(F)F [Ionic liquid 18]	No
CCCCCCCCCCCCCCCCCCN.O=S(=O)(O)C(F)(F)C(F)(F)C(F)(F)C(F)(F)C(F)(F)C(F)(F)C(F)(F)C(F)(F)F [Ionic liquid 10]	No
CCCCCCCCCCCCCCCC1CCCCN2CCCN=C12.O=S(=O)(O)C(F)(F)C(F)(F)C(F)(F)C(F)(F)C(F)(F)C(F)(F)C(F)(F)C(F)(F)F [Ionic liquid 11]	No
CCCCCCCCCCCCCCCCCCN.O=S1(=O)NS(=O)(=O)C(F)(F)C(F)(F)C1(F)F [Ionic liquid 14]	No
